Assay: blockers of RIG-like receptor reporter activation – cell-based, Sendai virus stimulus, luciferase, 10K MLSCN set, TLR/RLR signaling modifier project, primary screen (AID 602276);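 further: firefly luciferase from ISG56 promoter only with Renilla not read in this screen; 0% = Sendai virus plus DMSO and 100% = medium plus DMSO without virus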
Conditions: HEK293 RL24 IRF3 luciferase reporter, at 10 µM
The source made the active and inactive calls.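 How the source made its calls: active means inhibition at or above 50% at 10 µM; inactive means inhibition below 50%.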
Outcome (select one): label 1 for active, label 0 for inactive

Examples from the recorded data:
# compound, discrete.label
data = [
    ("N#Cc1ccccc1Cn1cc(C(=O)C2CC2)c2ccccc21", "label 0"),
    ("Cc1[nH]c2c(Cl)cccc2c1CCN", "label 0"),
]

Can you look up the reported call for `COc1ccccc1-n1c(O)c(C=NCc2ccc3c(c2)OCO3)c(=O)[nH]c1=O` for me?
label 0

Values from PubChem BioAssay
